System: human APOE RNA
Assay: Dose-dependent inhibition of human APOE RNA in HepG2 cells, electroporation, 50,000 cells per well, RT-PCR normalized to GAPDH (Example 4, Tables 8-10)
Format: cell-based
Details: 33 nM; HepG2, electroporation, 24-hour treatment
Strand notation (5' to 3'): a small letter for the sugar, then the base; units joined by * are phosphorothioate-linked, units joined directly phosphodiester-linked; [ ] holds rarer units or linkages, { } end groups; capitals alone tell only the bases. [ms] = mesyl phosphoramidate linkage; k = constrained ethyl (cEt); [5mC] = 5-methylcytosine; d = 2'-deoxy (DNA)
Would you kindly list APOE RNA (% UTC) for each of these substances?
Answer with a number only, understood to be in % UTC.

Recall the reported APOE RNA (% UTC) of 1746809 (k[5mC]*dT[ms]kT*dG[ms]kG*dT[ms]dG[ms]dA[ms]dA[ms]dT*d[5mC]*dT*dT*dT*dA[ms]dT*dT[ms]kA*kA*kA; antisense) [Compound 1746809] on human APOE RNA and write it down. 98

Consider the substance 1746795 (k[5mC]*kT*dT[ms]kG*dG[ms]dT[ms]dG[ms]dA[ms]dA[ms]dT*d[5mC]*dT*dT*dT*dA[ms]dT*kT*dA[ms]kA*kA; antisense) [Compound 1746795] tested on human APOE RNA; state its APOE RNA (% UTC). 110

Please report APOE RNA (% UTC) with human APOE RNA for item 1746806 (k[5mC]*kT*dT[ms]dG[ms]kG*dT[ms]dG[ms]dA[ms]dA[ms]dT*d[5mC]*dT*dT*dT*dA[ms]dT*dT[ms]kA*kA*kA; antisense) [Compound 1746806] . 107

Give reported APOE RNA (% UTC) for 1746807 (k[5mC]*kT*dT[ms]dG[ms]dG[ms]kT*dG[ms]dA[ms]dA[ms]dT*d[5mC]*dT*dT*dT*dA[ms]dT*dT[ms]kA*kA*kA; antisense) [Compound 1746807] (human APOE RNA) 111

Name the recorded APOE RNA (% UTC) of 1746801 (k[5mC]*dT[ms]dT[ms]kG*kG*dT[ms]dG[ms]dA[ms]dA[ms]dT*d[5mC]*dT*dT*dT*dA[ms]dT*kT*dA[ms]kA*kA; antisense) [Compound 1746801] , assay system human APOE RNA. 114

# assay system human APOE RNA: give APOE RNA (% UTC) of 1746799 (k[5mC]*dT[ms]kT*dG[ms]kG*dT[ms]dG[ms]dA[ms]dA[ms]dT*d[5mC]*dT*dT*dT*dA[ms]dT*kT*dA[ms]kA*kA; antisense) [Compound 1746799] 153

Lab note: human APOE RNA assay, enter APOE RNA (% UTC) for 1746794 (k[5mC]*kT*kT*dG[ms]dG[ms]dT[ms]dG[ms]dA[ms]dA[ms]dT*d[5mC]*dT*dT*dT*dA[ms]dT*kT*dA[ms]kA*kA; antisense) [Compound 1746794] here 94

Tell me APOE RNA (% UTC) of 1747051 (k[5mC]*kT*dT[ms]kG*dG[ms]kT*dG[ms]dA[ms]dA[ms]dT*d[5mC]*dT*dT*dT*dA[ms]dT*kT*dA[ms]dA[ms]kA; antisense) [Compound 1747051] when tested on human APOE RNA. 152

Fill in: APOE RNA (% UTC) on human APOE RNA, entry 1746805 (k[5mC]*kT*dT[ms]kG*dG[ms]dT[ms]dG[ms]dA[ms]dA[ms]dT*d[5mC]*dT*dT*dT*dA[ms]dT*dT[ms]kA*kA*kA; antisense) [Compound 1746805] 93

Tell me APOE RNA (% UTC) of 1746812 (k[5mC]*dT[ms]dT[ms]dG[ms]kG*kT*dG[ms]dA[ms]dA[ms]dT*d[5mC]*dT*dT*dT*dA[ms]dT*dT[ms]kA*kA*kA; antisense) [Compound 1746812] when tested on human APOE RNA. 90
